system: Leucine Dehydrogenase (LeuDH) from B. cereus containing a SUMO-protein domain; assay type: biochemical, Bacillus cereus; conditions: normalized to L-Leucine oxidation at 15 minutes (100%); 37° C.; L-amino acid 1 mM
Measured Normalized activity (%) values are reported for all entries that follow.

>  <compound>
N[C@@H](Cc1ccc(O)cc1)C(=O)O

>  <result.unit>
%

>  <Normalized activity (%)>
0.3

$$$$
>  <compound>
N[C@@H](Cc1c[nH]cn1)C(=O)O

>  <result.unit>
%

>  <Normalized activity (%)>
0.2

$$$$
>  <compound>
N[C@@H](Cc1ccccc1)C(=O)O

>  <result.unit>
%

>  <Normalized activity (%)>
0.3

$$$$
>  <compound>
N[C@@H](CCC(=O)O)C(=O)O [GLU, L-Glutamate]

>  <result.unit>
%

>  <Normalized activity (%)>
0.3

$$$$
>  <compound>
N[C@@H](CO)C(=O)O

>  <result.unit>
%

>  <Normalized activity (%)>
0.2

$$$$
>  <compound>
CC[C@H](C)[C@H](N)C(=O)O

>  <result.unit>
%

>  <Normalized activity (%)>
102.5

$$$$
>  <compound>
C[C@@H](O)[C@H](N)C(=O)O

>  <result.unit>
%

>  <Normalized activity (%)>
0.3

$$$$
>  <compound>
NCCCC[C@H](N)C(=O)O

>  <result.unit>
%

>  <Normalized activity (%)>
0.1

$$$$
>  <compound>
N[C@@H](Cc1c[nH]c2ccccc12)C(=O)O

>  <result.unit>
%

>  <Normalized activity (%)>
0.4

$$$$
>  <compound>
C[C@H](N)C(=O)O

>  <result.unit>
%

>  <Normalized activity (%)>
0.3

$$$$
>  <compound>
CC(C)[C@H](N)C(=O)O

>  <result.unit>
%

>  <Normalized activity (%)>
104.3

$$$$
>  <compound>
NC(=O)CC[C@H](N)C(=O)O

>  <result.unit>
%

>  <Normalized activity (%)>
0.2

$$$$
>  <compound>
CC(C)C[C@H](N)C(=O)O

>  <result.unit>
%

>  <Normalized activity (%)>
100.0

$$$$
>  <compound>
N[C@@H](CC(=O)O)C(=O)O [ASP, L-Aspartate]

>  <result.unit>
%

>  <Normalized activity (%)>
0.0

$$$$
>  <compound>
N=C(N)NCCC[C@H](N)C(=O)O

>  <result.unit>
%

>  <Normalized activity (%)>
0.4

$$$$

###

test system: Leucine Dehydrogenase (LeuDH) from B. cereus containing a SUMO-protein domain; type: biochemical, Bacillus cereus; conditions: L-amino acid 1 mM; 15 minutes at 37° C.; 100 mM Tris-HCl pH7.5; MTT reduction
assay.endpoint: A 600 nm (absorbance values for L-amino acids)

>  <compound>
N[C@@H](Cc1c[nH]c2ccccc12)C(=O)O

>  <tested.on>
Leucine Dehydrogenase (LeuDH) from B. cereus containing a SUMO-protein domain

>  <val>
0.003

$$$$
>  <compound>
CC(C)C[C@H](N)C(=O)O

>  <tested.on>
Leucine Dehydrogenase (LeuDH) from B. cereus containing a SUMO-protein domain

>  <val>
0.587

$$$$
>  <compound>
N[C@@H](CC(=O)O)C(=O)O [ASP, L-Aspartate]

>  <tested.on>
Leucine Dehydrogenase (LeuDH) from B. cereus containing a SUMO-protein domain

>  <val>
0.000

$$$$
>  <compound>
N=C(N)NCCC[C@H](N)C(=O)O

>  <tested.on>
Leucine Dehydrogenase (LeuDH) from B. cereus containing a SUMO-protein domain

>  <val>
0.003

$$$$
>  <compound>
N[C@@H](Cc1c[nH]cn1)C(=O)O

>  <tested.on>
Leucine Dehydrogenase (LeuDH) from B. cereus containing a SUMO-protein domain

>  <val>
0.001

$$$$
>  <compound>
CSCC[C@H](N)C(=O)O

>  <tested.on>
Leucine Dehydrogenase (LeuDH) from B. cereus containing a SUMO-protein domain

>  <val>
0.019

$$$$
